Target: Sodium-dependent dopamine transporter (Homo sapiens, UniProt Q01959)
Sequence (Q01959 whole entry): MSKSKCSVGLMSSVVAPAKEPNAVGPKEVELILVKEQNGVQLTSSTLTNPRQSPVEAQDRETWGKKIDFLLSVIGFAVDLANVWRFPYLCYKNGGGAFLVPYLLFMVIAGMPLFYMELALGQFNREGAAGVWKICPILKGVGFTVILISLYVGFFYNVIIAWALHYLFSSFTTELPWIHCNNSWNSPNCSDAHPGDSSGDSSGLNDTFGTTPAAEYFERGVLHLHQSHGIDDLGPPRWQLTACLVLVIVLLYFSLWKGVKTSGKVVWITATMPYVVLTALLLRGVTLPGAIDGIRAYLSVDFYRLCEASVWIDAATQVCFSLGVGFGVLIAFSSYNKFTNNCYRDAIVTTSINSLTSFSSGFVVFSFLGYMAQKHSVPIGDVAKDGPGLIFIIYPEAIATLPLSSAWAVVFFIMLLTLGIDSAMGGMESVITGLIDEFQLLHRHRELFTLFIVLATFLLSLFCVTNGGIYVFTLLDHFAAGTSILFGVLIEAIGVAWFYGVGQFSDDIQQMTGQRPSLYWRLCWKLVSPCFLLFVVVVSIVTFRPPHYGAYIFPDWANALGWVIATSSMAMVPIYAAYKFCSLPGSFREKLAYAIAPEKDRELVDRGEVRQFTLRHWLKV
Experiment: Displacement of [3H]WIN-35428 from human recombinant DAT by SPA
pKi: −log10 of the molar value.
readout.kind: pKi

- COC[C@@]12CNCC[C@]1(c1ccc(Cl)c(Cl)c1)C2 (relative stereo; 17) [GSK1360707]: 7.92

* * *

Target: UniProt Q01959
Assay: Displacement of [N-methyl-3H]WIN-35428 from human recombinant DAT expressed in pig LLCPK cells after 2 hrs by liquid scintillation counting
Type: cell-based
readout.kind: Ki (µM)

* COC[C@@]12CNCC[C@]1(c1ccc(Cl)cc1)C2 (racemic) | 0.251
* COC[C@@]12CNCC[C@]1(c1ccc(OC(F)(F)F)cc1)C2 (racemic) | 7.94
* CCOC[C@@]12CNCC[C@]1(c1ccc(Cl)c(Cl)c1)C2 (relative stereo; 31) | 0.00398
